target: human insulin receptor (HIR) (human, UniProt P06213); assay: competition
No end group written: not given here.
valueKind: Kd (µM)
Value expressed in µM; do not type the unit.

>  <binder>
QLEEEWAGVQCEVYGRECPS [S226]

>  <Kd [µM]>
16

$$$$

# input for lookup
// sample GSLDESFYDWFERQLGKKKXXKEWLDQEWAWVQCEVYGRGCPSEE (not fully specified (residues 19, 20, 21); printed as GSLDESFYDWFERQLGKKK-Ald-17-Ald-KEWLDQEWAWVQCEVYGRGCPSEE; cysteine pairing not given here; also: two peptides (1-19 and 22-45) joined by linker 17 between the Ald group on K19 and an N-terminal Ald on the second peptide) [S453] , its Kd was 0.00057
